Target: T1, APBA2_2, Q99767
T1 sequence (Q99767 654-744, limits assumed, looked up): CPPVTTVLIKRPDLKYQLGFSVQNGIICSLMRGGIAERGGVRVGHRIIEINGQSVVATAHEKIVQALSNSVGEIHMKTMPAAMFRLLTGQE
Assay: holdup assay
Set-up: key: below the threshold = too weak to quantify, mostly under pKd 3.1 to 4
Details: plain residues with an end cap or a label only (N-terminal biotin on a linker: ado-ado)
readout-type: pKd

binder: KKMLQRRTLL [OR8G1, Q15617]
readout-value: below the threshold

binder: RQKEVRESKC [SCN8A, Q9UQD0]
readout-value: below the threshold

binder: NTLNRKTTPV [CACNG8, Q8WXS5]
readout-value: below the threshold

binder: LPAVCYDIDI [PTTG2, Q9NZH5]
readout-value: below the threshold

binder: QRPYRRGSEI [KCNJ18, B7U540]
readout-value: below the threshold

binder: DDASLPVSDV [PLEKHA1, Q9HB21]
readout-value: below the threshold

binder: SPDRDRESIV [SCN5A, Q14524]
readout-value: below the threshold

binder: PYSESDDDWC [CACNA1A, O00555]
readout-value: below the threshold
